- target_under_test: Hck (UniProt P08631)
- Sequence (P08631 whole entry, looked up): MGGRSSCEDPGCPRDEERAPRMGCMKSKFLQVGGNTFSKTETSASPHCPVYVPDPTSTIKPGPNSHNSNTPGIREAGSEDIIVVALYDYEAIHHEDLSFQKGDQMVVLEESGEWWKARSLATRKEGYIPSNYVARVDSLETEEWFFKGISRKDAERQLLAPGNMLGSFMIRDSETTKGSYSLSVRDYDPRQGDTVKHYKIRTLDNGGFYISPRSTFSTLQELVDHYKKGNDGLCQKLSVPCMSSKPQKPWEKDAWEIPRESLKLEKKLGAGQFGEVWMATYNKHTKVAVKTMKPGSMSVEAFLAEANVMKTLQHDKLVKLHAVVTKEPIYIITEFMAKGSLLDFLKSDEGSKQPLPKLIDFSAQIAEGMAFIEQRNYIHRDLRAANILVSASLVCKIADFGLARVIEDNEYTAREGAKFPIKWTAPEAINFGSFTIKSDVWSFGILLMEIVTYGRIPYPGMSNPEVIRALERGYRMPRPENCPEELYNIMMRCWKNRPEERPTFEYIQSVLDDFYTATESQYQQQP
- experiment_summary: phosphorylation enrichment, bacterial display (enrichment ratio); higher = better substrate or ligand; peptides without Tyr show the background;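 note: 11-residue human phosphosite peptides and single-mutation variants displayed on the E. coli surface, counted by deep sequencing, each peptide's frequency after selection divided by its frequency in the unselected input library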;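 note: frequency after pTyr selection over input frequency; kinase dosed for 20-30% of maximal phosphorylation in three min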
Think of 0.4 as a floor: if phosphorylation enrichment stands on it or above, it is satisfied; beneath it, not satisfied.

Reported phosphorylation enrichment at or above 0.4? LVSCAYQMARG [FGFR1_Y605_V607M] satisfied

What do we get for SKNSKYNAEST [PSEN1_Y315] ? not satisfied

What do we get for QEIATCRRLLE [KRT14_Y415_Y415C] ? satisfied

What do we get for LADKPYTFEDF [FXN_Y118_YF] ? satisfied

What do we get for IRRSSYEDSSL [HNF4A_Y144_T139I] ? satisfied

What do we get for EDKSIYRRGAR [PRKCI_Y125] ? satisfied

What do we get for VSYDEYRYRSF [CFTR_Y515_V520F] ? satisfied

What do we get for RAMPVYKKAEH [TP63_Y231] ? not satisfied

What do we get for TAALWYIYSHT [ENG_Y612] ? satisfied

What do we get for PPTFRYERGSR [INPPL1_Y663_YF] ? satisfied

What do we get for GCRSKHVGLWG [KCNQ1_Y184_Y184H] ? not satisfied

What do we get for KEINDYVEKGT [SERPINA1_Y184_Q180E] ? satisfied

What do we get for MSGDVYSTDYY [NTRK2_Y702_R699G] ? satisfied

These measurements were taken from the supplement of paper PMC10065799.
